assay: soluble on expression in E. coli; label from the status in PepcDB or PDB records
PROPERTY NAME: soluble on expression in E. coli

# SEQUENCE STRING, ASSAY VALUE
records = [
    ("GAMERKANYAVDAYFREALRVSEPKAPKAPRPPKQPIVQDFQFFPPRLFELLDQEIYYFRKTVGYKVPKNTELGSDATKVQREEQRKIDEAEPLTEEEIQEKENLLSQGFTAWTKRDFNQFIKANEKYGRDDIDNIAKDVEGKTPEEVIEYNAVFWERCTELQDIERIMGQIERGEGKIQRRLSIKKALDQKMSRYRAPFHQLRLQYGNNKGKNYTEIEDRFLVCMLHKLGFDKENVYEELRAAIRASPQFRFDWFIKSRTALELQRRCNTLITLIERENIELEEKERAEKKKKAPKGSVSAGS", "soluble"),
    ("MSKKFEGSVAPRERINISYVPKTDGQTAEVELPLNMLVVGDTGNTQETSSLDERQAVSVNKHNFGAVMAEAAIGLNFTVPATLKGSTTDDEMNVALNIKSLDDFSPDSVARQVPEVNKLLELREALTALKGPMGNLPAFRTQLQALLENEESREQLLKEIGQVSNK", "soluble"),
]

* * *

test: soluble on expression in E. coli; label from the status in PepcDB or PDB records
PROPERTY NAME: soluble on expression in E. coli

# SEQUENCE STRING, PROPERTY NAME, ASSAY VALUE
rows = [
    ("MNMDVNAVKNSTRGKHWFNLLTQGFNLIASGIDSLLIAEGQLGENKISVFCVVPDSHNHFPRARQGEVGLLEGWSLAQAIDQIIESDQNLTHKRGILCIVDVPSQAYGRREELLGIHQALAAAADSYVRARLAGHPVVSLLVGKSMSGAFLAHGYQANRILALKDQGVMVHAMGKESAARVTLRTVDELENLAANIPPMAYDIESYNSLGLLSGLLNVSHADHPTTSDIDYIQQTLSQTFQEIRNQGTSDLKHRLSAKNREASVHVRELLREQWS", "soluble on expression in E. coli", "not soluble"),
    ("MGSDKIHHHHHHYATVEPLHINRFDKDLFRLIDTGDTTLQPELIKQYPEMLDIIGKGILNLQTIETPGFFEKMRNYYSEPTLKGLYRDAITQYDSVEDIEKSLGYGFAYLKENFPSMQIPAIYMHVSGFNQNVLVGDSLLSLSIDKYMGKDYPLYQDFFYDSQKLKMQRGLVVPDYLAGWLMSEYPFAGKENVLLDRMIYEGKIKYLLSQALGVPDAAELMGYTEQAYNWCKDNEGTIWKAIIERKHLYTPDQLTTSQYFEDTPTIFPGNDAPGNIGTWIGWQIINQYIKETGSTPEALMQNNDAQEILTASKYKPL", "soluble on expression in E. coli", "not soluble"),
]

* * *

test: soluble on expression in E. coli; label from the status in PepcDB or PDB records

# SEQUENCE STRING, soluble on expression in E. coli
rows = [
    ("SSFKKILGLSSKSHKKSKKMGLPPPYDESSPMETQPSAPLSNDFFGMEDMDLYDKDSLRYEKFRFMLKMTVRSNKPFRSYDDVTAAVSQWDNSYIGMVGKRPFYKIIALIGSSHLQATPAVLADLNQPEYYATLTGRCFLPHRLGLIPPMFNVSETFRKPFNIGIYKGTLDFTFTVSDDESNEKVPHVWEYMNPKYQSQIQKEGLKFGLILSKKATGTWVLDQLSPFK", "soluble"),
    ("MSLLMTLVDEIKNRSSHVDAAIDELLPVTRPEELYKASRYLVDAGGKRLRPAVLILAAEAVGSNLRSVLPAAVAVELVHNFTLIHDDIMDRDDIRRGMPAVHVKWGEAGAILAGDTLYSKAFEILSKVENEPVRVLKCMDVLSKTCTEICEGQWLDMDFETRKKVTESEYLEMVEKKTSVLYAAAAKIGALLGGASDEVAEALSEYGRLIGIGFQMYDDVLDMTAPEEVLGKVRGSDLMEGKYTLIVINAFEKGVKLDIFGKGEATLEETEAAVRTLTECGSLDYVKNLAISYIEEGKEKLDVLRDCPEKTLLLQIADYMISREYEGHHHHHH", "soluble"),
    ("MSLSKKTQINLKIERAKEEDLPKLVDLYLRAYKGLEEYAYTHPKDVKSYLKWLWNRDKEGIFLAKVDGKIVGFGAGDANWFSRREGKRVGAIHEIVVDPEYQGHGVGTALMNTILEYFKKKGLDTAELWVGDENYKAINFYKKFGFQESGRYNYWIRMIKGIITITTDPNSSSVDKLAAALEHHHHHH", "soluble"),
]

Sourced from the DeepSol protein solubility set
